Assay: INS-1E beta-cell viability without cytokines, dose response, cytotoxicity control for beta-cell cytokine protection project, CellTiter-Glo luminescence, dry powder (AID 488864)
Settings: INS-1E rat beta cells, 48 h, no cytokines; series mostly up to 26 µM
Potency and affinity values are given separately. Calls of active or inactive are those of the source.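 The calls were made as follows: active = ATP signal reduced by compound, with fitted active dose under ten times the top valid tested dose; inactive = the rest, compounds that increase ATP levels included.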
Parameter: outcome

C[C@@H]1CN([C@@H](C)CO)C(=O)c2cccc(NC(=O)Nc3cccc4ccccc34)c2O[C@H]1CN(C)C(=O)Nc1ccc2c(c1)OCO2 = inactive
C[C@@H]1CN([C@@H](C)CO)C(=O)c2cccc(NC(=O)Nc3cccc4ccccc34)c2O[C@H]1CN(C)S(=O)(=O)c1ccc2c(n1)N(C)CCO2 = inactive
Cc1ccc(S(=O)(=O)N(C)C[C@@H]2Oc3c(NC(=O)Nc4cccc5ccccc45)cccc3C(=O)N([C@H](C)CO)C[C@H]2C)cc1 = inactive
